- Subject of test: Human LC3B (residues 1-120) (human, UniProt Q9GZQ8 1-120)
- Measurement protocol: ITC
pKd: −log10 of the molar value. Where no end group is shown, it is not given here. [ ]: non-standard residue; d: D form. pS = N[C@@H](COP(=O)(O)O)C(=O)O

[
  {
    "Binder": "[pS]G[pS][pS]FEELDL [TEX264 peptide (residues 269-278) with p-S269, p-S271, p-S272]",
    "pKd": 6.60
  },
  {
    "Binder": "SGS[pS]FEELDL [TEX264 peptide (residues 269-278) with S272 phosphorylation (p-S272)]",
    "pKd": 6.24
  },
  {
    "Binder": "SGSSFEELDL [TEX264 LIR peptide (residues 269-278), unphosphorylated wild type]",
    "pKd": 4.68
  },
  {
    "Binder": "SGEEFEELDL [phosphomimetic TEX264^(S271, 272E) peptide (2SE-LIR)]",
    "pKd": 5.28
  },
  {
    "Binder": "SGDDFEELDL [phosphomimetic TEX264^(S271D, S272D) peptide (2SD-LIR)]",
    "pKd": 5.12
  },
  {
    "Binder": "[pS]GASGSSFEELDL [TEX264 LIR peptide (residues 266-278) with S266 phosphorylation (p-S266)]",
    "pKd": 4.66
  },
  {
    "Binder": "SG[pS][pS]FEELDL [phosphorylated TEX264 LIR (residues 269-278 with p-S271,p-S272)]",
    "pKd": 6.43
  },
  {
    "Binder": "EGEEFEELDL [phosphomimetic TEX264^(S269E, S271E, S272E) peptide (3SE-LIR)]",
    "pKd": 5.30
  },
  {
    "Binder": "SGASGSSFEELDL [TEX264 LIR peptide (residues 266-278), unphosphorylated]",
    "pKd": 4.41
  },
  {
    "Binder": "DGDDFEELDL [phosphomimetic TEX264^(S269D, S271D, S272D) peptide (3SD-LIR)]",
    "pKd": 5.17
  }
]
